Target: UniProtKB P27338
Sequence (P27338 whole entry): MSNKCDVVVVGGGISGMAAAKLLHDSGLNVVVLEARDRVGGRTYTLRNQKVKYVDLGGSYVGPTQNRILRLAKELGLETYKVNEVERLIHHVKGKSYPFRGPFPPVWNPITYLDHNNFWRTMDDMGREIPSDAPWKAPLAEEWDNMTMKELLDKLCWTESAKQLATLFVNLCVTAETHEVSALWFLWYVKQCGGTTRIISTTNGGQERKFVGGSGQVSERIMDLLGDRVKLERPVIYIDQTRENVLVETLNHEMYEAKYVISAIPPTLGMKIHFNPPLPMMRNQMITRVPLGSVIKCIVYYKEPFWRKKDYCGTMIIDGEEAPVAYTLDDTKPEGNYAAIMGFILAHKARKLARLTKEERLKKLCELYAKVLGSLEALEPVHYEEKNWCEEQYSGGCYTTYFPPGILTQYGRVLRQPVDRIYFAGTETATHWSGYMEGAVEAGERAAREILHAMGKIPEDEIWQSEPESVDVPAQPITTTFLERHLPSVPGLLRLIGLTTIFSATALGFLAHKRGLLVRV
Assay: biochemical
Conditions: read-out: IC50 hMAO-B
pIC50: −log10 of the molar value.
PROPERTY_LABEL: pIC50

Challenge: So what's the measured pIC50 for this one? CC(=O)O[C@H]1C=CC(=O)O[C@H]1[C@@H]1[C@H](C)[C@H]2C=CC=C[C@@H]1O2
Response given: < 4.40

---

Target: hMAO-A (Homo sapiens)
Sequence (P21397 whole entry): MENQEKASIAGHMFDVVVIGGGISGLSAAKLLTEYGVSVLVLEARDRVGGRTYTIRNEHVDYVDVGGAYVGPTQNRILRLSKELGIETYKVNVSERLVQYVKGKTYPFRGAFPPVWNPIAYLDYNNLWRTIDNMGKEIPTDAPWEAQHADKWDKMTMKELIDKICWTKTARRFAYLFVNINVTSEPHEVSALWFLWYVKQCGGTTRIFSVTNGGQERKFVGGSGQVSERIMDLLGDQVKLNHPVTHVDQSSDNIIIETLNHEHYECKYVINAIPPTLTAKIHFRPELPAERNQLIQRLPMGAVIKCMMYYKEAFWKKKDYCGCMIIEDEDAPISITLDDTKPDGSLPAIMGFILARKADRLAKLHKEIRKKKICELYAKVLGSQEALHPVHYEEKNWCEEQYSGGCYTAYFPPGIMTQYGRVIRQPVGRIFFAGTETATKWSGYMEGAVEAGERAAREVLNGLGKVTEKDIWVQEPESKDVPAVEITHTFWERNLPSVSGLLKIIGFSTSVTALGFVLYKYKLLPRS
Experiment: biochemical
Details: Lineweaver–Burk secondary plot; read-out: Ki hMAO-A
PROPERTY_LABEL: pKi
// returns pKi (minus log10 of molar concentration), number only

Challenge: GET /values?readout=pKi&system=hMAO-A (Homo sapiens)&item= CC(=O)O[C@H]1C=CC(=O)O[C@H]1[C@@H]1[C@H](C)[C@H]2C=CC=C[C@@H]1O2
Response given: 5.42

Where do these numbers come from? They come from paper PMC8541017.
